Give binding signal for every item shown.
- TARGET_OF_ASSAY: GST-Dm-Relish (Drosophila melanogaster, UniProt Q94527 99-473)
- Sequence: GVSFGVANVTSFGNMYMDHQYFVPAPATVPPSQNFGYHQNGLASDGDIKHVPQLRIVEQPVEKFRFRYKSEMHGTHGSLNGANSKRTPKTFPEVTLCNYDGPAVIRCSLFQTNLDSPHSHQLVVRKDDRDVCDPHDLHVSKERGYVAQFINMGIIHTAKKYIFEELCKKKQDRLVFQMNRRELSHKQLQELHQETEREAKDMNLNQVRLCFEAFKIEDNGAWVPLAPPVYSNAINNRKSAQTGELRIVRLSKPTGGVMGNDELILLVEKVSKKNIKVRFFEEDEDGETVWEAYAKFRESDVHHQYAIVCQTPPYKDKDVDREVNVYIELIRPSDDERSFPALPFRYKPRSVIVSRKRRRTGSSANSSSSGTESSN
- ASSAY_EXPLANATION: protein-binding microarray (PBM); PBM: ~300 nM protein, 6 mM HEPES pH 7.8, 80 mM KCl, 0.5 mM EDTA, 0.5 mM EGTA, 6% glycerol, 35 ng/ul poly-dIdC, 1% milk, 1 h, room temperature; high values mean tight binding
- EXPERIMENTAL_CONTEXT: dsDNA, one strand shown
Numbers only, in z-score.

For every item in the list below, what is its measured binding signal?
1. CCGATTAACATCAGGAGAGTACCTGATGTTAATCGGGTCTTGATTCGCTTGACGCTGCTG
2. CCGATTAACATCAAACAACCCCCTGATGTTAATCGGGTCTTGATTCGCTTGACGCTGCTG

Found:
[2.54, 5.24]

====

Give binding signal for every item shown.
- TARGET_OF_ASSAY: GST-Ap-NF-kB RHD (Exaiptasia pallida (Aiptasia), UniProt A0A913YAJ5 2-422)
- Sequence: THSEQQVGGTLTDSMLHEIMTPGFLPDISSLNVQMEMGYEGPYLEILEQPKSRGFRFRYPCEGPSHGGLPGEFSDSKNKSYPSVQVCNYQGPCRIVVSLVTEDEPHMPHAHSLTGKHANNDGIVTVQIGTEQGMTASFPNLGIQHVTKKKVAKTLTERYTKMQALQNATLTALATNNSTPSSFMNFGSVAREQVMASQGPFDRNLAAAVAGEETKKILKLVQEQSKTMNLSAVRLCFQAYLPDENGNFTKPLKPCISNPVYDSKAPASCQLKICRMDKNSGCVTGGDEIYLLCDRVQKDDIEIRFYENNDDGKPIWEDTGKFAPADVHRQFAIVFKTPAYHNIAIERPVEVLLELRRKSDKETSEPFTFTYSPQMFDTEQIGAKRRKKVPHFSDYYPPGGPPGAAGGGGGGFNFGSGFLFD
- ASSAY_EXPLANATION: protein-binding microarray (PBM); PBM: ~300 nM protein, 6 mM HEPES pH 7.8, 80 mM KCl, 0.5 mM EDTA, 0.5 mM EGTA, 6% glycerol, 35 ng/ul poly-dIdC, 1% milk, 1 h, room temperature; Ap Aiptasia and Nv Nematostella (sea anemones) / Co Capsaspora / Aq Amphimedon (sponge) / Dm Drosophila / Hu human; RHD is the Rel homology domain; high values mean tight binding
- EXPERIMENTAL_CONTEXT: dsDNA, one strand shown
One number for each entry, in z-score.

Answered cases to consult:
                         construct_sequence                           target_of_assay  unit_symbol  test_value
0  CCGATTAACATCAAAATTCCCGTTGATGTTAATCGGGTCTTGATTCGCTTGACGCTGCTG  GST-Ap-NF-kB RHD (Exaiptasia pallida (Aiptasia), UniProt A0A913YAJ5 2-422)      z-score        3.98
1  CCGATTAACATCACAAAAAACCCTGATGTTAATCGGGTCTTGATTCGCTTGACGCTGCTG  GST-Ap-NF-kB RHD (Exaiptasia pallida (Aiptasia), UniProt A0A913YAJ5 2-422)      z-score        3.76
2  CCGATTAACATCAGGGAATTGGATGATGTTAATCGGGTCTTGATTCGCTTGACGCTGCTG  GST-Ap-NF-kB RHD (Exaiptasia pallida (Aiptasia), UniProt A0A913YAJ5 2-422)      z-score        2.15
3  CCGATTAACATCACATATTCCCCTGATGTTAATCGGGTCTTGATTCGCTTGACGCTGCTG  GST-Ap-NF-kB RHD (Exaiptasia pallida (Aiptasia), UniProt A0A913YAJ5 2-422)      z-score        7.49

For every item in the list below, what is its measured binding signal?
1. CCGATTAACATCAAGATACCCCCTGATGTTAATCGGGTCTTGATTCGCTTGACGCTGCTG
2. CCGATTAACATCAGTGGGAAAAATGATGTTAATCGGGTCTTGATTCGCTTGACGCTGCTG
3. CCGATTAACATCAACGAAACCCCTGATGTTAATCGGGTCTTGATTCGCTTGACGCTGCTG
4. CCGATTAACATCACCCCTTCCCCTGATGTTAATCGGGTCTTGATTCGCTTGACGCTGCTG

Found:
[7.1, 2.21, 3.65, 4.7]
